Reference source: patent US10906930B2

- target_system: REF allele hSTING (STING AA140-379) (Homo sapiens)
- Construct: DNA encoding amino acids 140-379 (amino acid numbering corresponding to Swiss Prot Q86WV6); 6xHIS (N, cleaved yes); SUMO (N, cleaved yes); made in house; host or cells: E. coli Rosetta2 (DE3)
- Sequence (Q86WV6 140-379): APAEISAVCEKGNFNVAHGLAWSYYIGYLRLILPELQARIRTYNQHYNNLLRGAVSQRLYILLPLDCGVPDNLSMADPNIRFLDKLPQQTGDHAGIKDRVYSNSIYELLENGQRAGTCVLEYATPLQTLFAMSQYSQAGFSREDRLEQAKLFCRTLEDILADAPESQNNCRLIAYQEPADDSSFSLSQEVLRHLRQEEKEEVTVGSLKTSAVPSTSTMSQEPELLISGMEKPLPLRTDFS
- assay_overview: DSF Tm shift with purified hSTING REF allele protein
- Format: binding
- run_parameters: 1 mg/mL purified STING AA140-379, ligand 1 mM
- Protocol: Cells were grown in lysogeny broth at 37° C. until a […] absorbance of 0.6 was reached. […] Cell pellets were re-suspended on ice in a buffer containing 50 mM Tris hydrochloride (Tris-HCl) pH 7.5, 500 mM sodium chloride (NaCl), 20 mM imidazole, 10% glycerol, 1 mM tris(2-carboxyethyl)phosphine hydrochloride (TCEP) and protease inhibitor tablet (Pierce) (Buffer A). […] The protein is thermally denatured by heating resulting in increased dye binding to the unfolded protein and fluorescence. […]
endpoint_label: hSTING Tm Shift REF (°C)

• Nc1ncnc2c1ncn2[C@@H]1O[C@@H]2CO[P@@](=O)(S)O[C@@H]3[C@H](F)[C@@H](CO[P@@](=O)(S)O[C@H]2[C@H]1F)O[C@H]3n1cnc2c(N)ncnc21 = 10.5
• Nc1ncnc2c1ncn2[C@@H]1O[C@@H]2CO[P@@](=O)(S)O[C@@H]3C[C@@H](CO[P@@](=O)(S)O[C@H]2[C@H]1F)O[C@H]3n1cnc2c(N)ncnc21 = 7.8
• Nc1nc2c(ncn2[C@@H]2O[C@@H]3CO[P@](=O)(S)O[C@@H]4[C@H](F)[C@@H](CO[P@](=O)(S)O[C@H]3[C@H]2F)O[C@H]4n2cnc3c(N)ncnc32)c(=O)[nH]1 [Compound 32b] = 5.5
• Nc1ncnc2c1ncn2[C@@H]1O[C@@H]2CO[P@@](=O)(S)O[C@@H]3C[C@@H](CO[P@](=O)(S)O[C@H]2[C@H]1F)O[C@H]3n1cnc2c(N)ncnc21 [Compound 45a] = 4.3
• Nc1ncnc2c1ncn2[C@@H]1O[C@@H]2CO[P@@](=O)(S)O[C@@H]3[C@H](F)[C@@H](CO[P@](=O)(S)O[C@H]2[C@H]1F)O[C@H]3n1cnc2c(N)ncnc21 = 7.9
• Nc1ncnc2c1ncn2[C@@H]1O[C@@H]2CO[P@@](=O)(S)O[C@@H]3[C@H](F)[C@@H](CO[P@@](=O)(S)O[C@H]2[C@H]1O)O[C@H]3n1cnc2c(N)ncnc21 = 7.8
• Nc1ncnc2c1ncn2[C@@H]1O[C@@H]2CO[P@@](=O)(S)O[C@@H]3[C@@H](F)[C@@H](CO[P@](=O)(S)O[C@H]2[C@H]1F)O[C@H]3n1cnc2c(N)ncnc21 [Compound 10a] = 3.4
• Nc1ncnc2c1ncn2[C@@H]1O[C@@H]2CO[P@@](=O)(S)O[C@@H]3[C@H](F)[C@@H](CO[P@](=O)(S)O[C@H]2[C@H]1O)O[C@H]3n1cnc2c(N)ncnc21 [Compound 20a] = 4.0
• Nc1nc2c(ncn2[C@@H]2O[C@@H]3CO[P@](=O)(S)O[C@@H]4[C@H](O)[C@@H](CO[P@@](=O)(S)O[C@H]3[C@H]2F)O[C@H]4n2cnc3c(N)ncnc32)c(=O)[nH]1 [Compound 35a] = 9.9

* * *

- target_system: HAQ allele hSTING (STING AA140-379) (Homo sapiens, UniProt Q86WV6, G230A/H232R/R293Q)
- Construct: DNA encoding amino acids 140-379 (amino acid numbering corresponding to Swiss Prot Q86WV6); 6xHIS (N, cleaved yes); SUMO (N, cleaved yes); made in house; host or cells: E. coli Rosetta2 (DE3)
- Sequence (Q86WV6 140-379 G230A/H232R/R293Q): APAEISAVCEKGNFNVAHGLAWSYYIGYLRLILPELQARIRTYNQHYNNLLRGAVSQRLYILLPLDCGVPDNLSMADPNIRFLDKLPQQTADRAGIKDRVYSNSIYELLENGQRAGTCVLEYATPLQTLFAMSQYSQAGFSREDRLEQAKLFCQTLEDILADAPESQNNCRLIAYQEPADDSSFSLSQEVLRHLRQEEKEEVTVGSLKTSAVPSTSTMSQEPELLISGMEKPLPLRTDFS
- assay_overview: DSF Tm shift with purified hSTING HAQ allele protein
- Type: binding
- run_parameters: 1 mg/mL purified STING AA140-379, ligand 1 mM
endpoint_label: hSTING Tm Shift HAQ (°C)

- Nc1ncnc2c1ncn2[C@@H]1O[C@@H]2CO[P@@](=O)(S)O[C@@H]3[C@H](F)[C@@H](CO[P@@](=O)(S)O[C@H]2[C@H]1O)O[C@H]3n1cnc2c(N)ncnc21: 19.3
- Nc1ncnc2c1ncn2[C@@H]1O[C@@H]2COP(=O)(S)O[C@@H]3[C@@H](F)[C@@H](COP(=O)(S)O[C@H]2[C@H]1O)O[C@H]3n1cnc2c(N)ncnc21 (stereo partly drawn) [Compound 53, dithio-cyclic-[3′βF-A(2′,5′)p-A(3′,5′)p]]: 5.5
- Nc1ncnc2c1ncn2[C@@H]1O[C@@H]2CO[P@@](=O)(S)O[C@@H]3C[C@@H](CO[P@@](=O)(S)O[C@H]2[C@H]1F)O[C@H]3n1cnc2c(N)ncnc21: 20.1
- Nc1nc2c(ncn2[C@@H]2O[C@@H]3CO[P@](=O)(S)O[C@@H]4[C@H](F)[C@@H](CO[P@@](=O)(S)O[C@H]3[C@H]2F)O[C@H]4n2cnc3c(N)ncnc32)c(=O)[nH]1 [Compound 32a]: 14.3
- Nc1ncnc2c1ncn2[C@@H]1O[C@@H]2CO[P@@](=O)(S)O[C@@H]3[C@@H](F)[C@@H](CO[P@@](=O)(S)O[C@H]2[C@H]1F)O[C@H]3n1cnc2c(N)ncnc21: 20.6
- Nc1ncnc2c1ncn2[C@@H]1O[C@@H]2CO[P@@](=O)(S)O[C@@H]3[C@H](F)[C@@H](CO[P@@](=O)(S)O[C@H]2[C@H]1F)O[C@H]3n1cnc2c(N)ncnc21: 26.0
- Nc1ncnc2c1ncn2[C@@H]1O[C@@H]2CO[P@@](=O)(S)O[C@@H]3[C@@H](F)[C@@H](CO[P@](=O)(S)O[C@H]2[C@H]1F)O[C@H]3n1cnc2c(N)ncnc21 [Compound 10a]: 12.7
- Nc1nc2c(ncn2[C@@H]2O[C@@H]3CO[P@](=O)(S)O[C@@H]4[C@H](O)[C@@H](CO[P@@](=O)(S)O[C@H]3[C@H]2F)O[C@H]4n2cnc3c(N)ncnc32)c(=O)[nH]1 [Compound 35a]: 14.2
- Nc1ncnc2c1ncn2[C@@H]1O[C@@H]2CO[P@@](=O)(S)O[C@@H]3[C@H](F)[C@@H](CO[P@](=O)(S)O[C@H]2[C@H]1O)O[C@H]3n1cnc2c(N)ncnc21 [Compound 20a]: 11.8

* * *

- target_system: HAQ allele hSTING (STING AA140-379) (Homo sapiens, UniProt Q86WV6, G230A/H232R/R293Q)
- Construct: DNA encoding amino acids 140-379 (amino acid numbering corresponding to Swiss Prot Q86WV6); 6xHIS (N, cleaved yes); SUMO (N, cleaved yes); made in house; host or cells: E. coli Rosetta2 (DE3)
- assay_overview: DSF Tm shift with purified hSTING HAQ allele protein
- Type: binding
- run_parameters: 1 mg/mL purified STING AA140-379, ligand 1 mM
As shown below, each of these compounds has a reported hSTING Tm Shift HAQ value.
endpoint_label: hSTING Tm Shift HAQ (°C)

- Nc1nc2c(ncn2[C@@H]2O[C@@H]3CO[P@@](=O)(S)O[C@@H]4[C@H](O)[C@@H](CO[P@@](=O)(S)O[C@H]3[C@H]2F)O[C@H]4n2cnc3c(N)ncnc32)c(=O)[nH]1: 28.3
- Nc1ncnc2c1ncn2[C@@H]1O[C@@H]2CO[P@@](=O)(S)O[C@@H]3[C@H](F)[C@@H](CO[P@](=O)(S)O[C@H]2[C@H]1F)O[C@H]3n1cnc2c(N)ncnc21: 19.9
- Nc1ncnc2c1ncn2[C@@H]1O[C@@H]2CO[P@@](=O)(S)O[C@@H]3C[C@@H](CO[P@](=O)(S)O[C@H]2[C@H]1F)O[C@H]3n1cnc2c(N)ncnc21 [Compound 45a]: 13.1
- Nc1nc2c(ncn2[C@@H]2O[C@@H]3CO[P@](=O)(S)O[C@@H]4[C@H](F)[C@@H](CO[P@](=O)(S)O[C@H]3[C@H]2F)O[C@H]4n2cnc3c(N)ncnc32)c(=O)[nH]1 [Compound 32b]: 9.3
- Nc1nc2c(ncn2[C@@H]2O[C@@H]3CO[P@@](=O)(S)O[C@@H]4[C@H](F)[C@@H](CO[P@@](=O)(S)O[C@H]3[C@H]2F)O[C@H]4n2cnc3c(N)ncnc32)c(=O)[nH]1: 22.6

* * *

- target_system: wild type hSTING (STING AA140-379) (Homo sapiens, UniProt Q86WV6, H232R)
- Construct: DNA encoding amino acids 140-379 (amino acid numbering corresponding to Swiss Prot Q86WV6); 6xHIS (N, cleaved yes); SUMO (N, cleaved yes); made in house; host or cells: E. coli Rosetta2 (DE3)
- Sequence (Q86WV6 140-379 H232R): as the sequence (Q86WV6 140-379 G230A/H232R/R293Q) above, with A91G, Q154R counted along it
- assay_overview: DSF Tm shift with purified hSTING WT protein
- Format: binding
- run_parameters: 1 mg/mL purified STING AA140-379, ligand 1 mM
As shown below, each of these molecules has a reported hSTING Tm Shift WT value.
endpoint_label: hSTING Tm Shift WT

• Nc1ncnc2c1ncn2[C@@H]1O[C@@H]2CO[P@@](=O)(S)O[C@@H]3[C@H](F)[C@@H](CO[P@](=O)(S)O[C@H]2[C@H]1O)O[C@H]3n1cnc2c(N)ncnc21 [Compound 20a] = 6.6 °C
• Nc1ncnc2c1ncn2[C@@H]1O[C@@H]2CO[P@@](=O)(S)O[C@@H]3C[C@@H](CO[P@](=O)(S)O[C@H]2[C@H]1F)O[C@H]3n1cnc2c(N)ncnc21 [Compound 45a] = 7.5 °C
• Nc1nc2c(ncn2[C@@H]2O[C@@H]3CO[P@@](=O)(S)O[C@@H]4[C@H](O)[C@@H](CO[P@@](=O)(S)O[C@H]3[C@H]2F)O[C@H]4n2cnc3c(N)ncnc32)c(=O)[nH]1 = 16.1 °C
• Nc1nc2c(ncn2[C@@H]2O[C@@H]3CO[P@](=O)(S)O[C@@H]4[C@H](F)[C@@H](CO[P@@](=O)(S)O[C@H]3[C@H]2F)O[C@H]4n2cnc3c(N)ncnc32)c(=O)[nH]1 [Compound 32a] = 10.6 °C
